# subject.of.test: oxytocin receptor (Rattus norvegicus, UniProt P70536)
# Construct: crude membrane preparation of rat uterus as the source of oxytocin receptors; from tissue; host or cells: rat uterus, crude membrane preparation
# Sequence (P70536 whole entry): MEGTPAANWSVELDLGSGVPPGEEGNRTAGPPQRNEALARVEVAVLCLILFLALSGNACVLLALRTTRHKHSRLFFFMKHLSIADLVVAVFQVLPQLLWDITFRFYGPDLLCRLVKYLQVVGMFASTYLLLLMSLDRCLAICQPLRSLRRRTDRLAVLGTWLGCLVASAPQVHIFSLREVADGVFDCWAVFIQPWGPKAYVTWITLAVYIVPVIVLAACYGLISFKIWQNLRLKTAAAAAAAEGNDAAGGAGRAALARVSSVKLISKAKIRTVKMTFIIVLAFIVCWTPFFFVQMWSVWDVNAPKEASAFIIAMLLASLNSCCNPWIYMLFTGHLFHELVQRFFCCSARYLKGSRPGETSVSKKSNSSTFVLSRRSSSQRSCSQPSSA
# assay.comment: [^3H]Oxytocin Binding Assay (crude membrane preparation of rat uterus)
# Source text: The biological activities of the compounds of Formula I have been evaluated using a[^3 H]oxytocin binding assay. [^3 H]Oxytocin Binding Assay Oxytocin receptors have been identified in mammalian uterine tissue through the use of in vitro radioligand binding assays. These receptor binding sites mediate the contractile response of the uterine myometrium to oxytocin. […]
assay.readout: IC50 (nM)
Answers are plain numbers, in nM.

CN1C(=O)[C@@H](NS(=O)(=O)C[C@@]23CC[C@@H](CC2O)C3(C)C)N=C(c2ccccc2)c2ccccc21 (stereo partly shown) ... 2500
CN1C(=O)C(NC(=O)CC23CC4CC(CC(C)(C4)C2)C3)N=C(c2ccccc2)c2ccccc21 (racemic) ... 4700
CN1C(=O)C(NC(=O)NC2C3CC4CC(C3)CC2C4)N=C(c2ccccc2)c2ccccc21 (racemic) [Example 1] ... 3900
CN1C(=O)C(NC(=O)CC23CC4CC(CC(C4)C2)C3)N=C(c2ccccc2)c2ccccc21 (racemic) ... 2800
CN1C(=O)C(NC(=O)C23CC4CC(CC(C4)C2)C3)N=C(c2ccccc2)c2ccccc21 (racemic) ... 13800

Record IC50 for all entries; do not skip any.
1. CN1C(=O)[C@H](NS(=O)(=O)C[C@@]23CC[C@@H](CC2=O)C3(C)C)N=C(c2ccccc2)c2ccccc21
2. CN1C(=O)C(NC(=O)NC2C3CC4CC(C3)CC2C4)N=C(c2ccccc2)c2ccccc21 (single isomer, unassigned; (+)) [Example 2]

1. 1400
2. 1600

Value source: patent US5175159A
